- Tested on: Hs-578T
- Protocol summary: NCI tumour cell line growth inhibition, 48 h
Calls of active or inactive are those of the source. Cut-off read from the data, not from the text of the source: active = GI50 up to about 1.1 µM and inactive = higher.
Each record here notes measured GI50.

Recorded results for 2 compounds are shown here.
C[C@H](NC1=C(Cl)C(=O)c2c(O)ccc(O)c2C1=O)C(=O)Nc1ccc([N+](=O)[O-])cc1; 4.57 µM (inactive)
O=C(Oc1cc(=O)c(OC(=O)c2ccccc2)co1)c1ccccc1; 93.8 µM (inactive)

Q) Recorded GI50 of CN(C(=O)C12C3C4(C(=O)O)C1(C(=O)N(C)C(C)(C)C)C1C2(C(=O)O)C3(C(=O)N(C)C(C)(C)C)C14C(=O)N(C)C(C)(C)C)C(C)(C)C (stereo not drawn) , please.
A) > 100 µM (inactive)

---

- Test system: HOP-62
- Protocol summary: NCI tumour cell line growth inhibition, 48 h
Activity calls are given as the source filed them. Cut-off read from the data, not from the text of the source: active = GI50 up to about 1.1 µM and inactive = higher.
Item-by-item account of GI50

CC(=O)O[C@H]1CC[C@@]2(C)C(=CC[C@@H]3[C@@H]2CC[C@]2(C)NC(=O)/C(=C\c4ccccc4)C[C@@H]32)C1; 13.2 µM (inactive)
OC(c1ccc(Br)cc1)(c1cccs1)C1CC1 (stereo not drawn); 23.3 µM (inactive)
CCOC(=O)N1CCC2(CC1)CC(=O)N(Nc1ccccc1)C2=O; > 100 µM (inactive)
CCCCCCCCCCCCC(CC)CCCCC(=O)O (stereo not drawn); > 100 µM (inactive)
CC12CCCC(C(=O)O)(C1)[C@H](C(C)(C)C(=O)O)CC2 (stereo partly drawn); > 100 µM (inactive)

Q) Which GI50 reading was recorded for the molecule COc1cc(O)c2c(O)c3c(=O)oc(C)cc3c(OC)c2c1 [PAEPALANTINE] ?
A) 30.3 µM (inactive)

Q) Similarly, `CCOC(=O)C1Cc2ccc3c4c(ccc(c24)C1)CC(C(=O)OCC)C3` ?
A) > 100 µM (inactive)

Q) // next record O=c1ccn(/C=C/C(O)C(O)CO)c(=O)[nH]1 (stereo not drawn)
A) > 100 µM (inactive)

---

- System: OVCAR-8
- Protocol summary: NCI tumour cell line growth inhibition, 48 h
The source made the active and inactive calls. Rule as the data show it: active = GI50 up to about 1.1 µM and inactive = higher.
Attribute measured: GI50

CCOC(=O)CC(NC(=O)c1nc[nH]c1[N+](=O)[O-])C(=O)OCC (stereo not drawn); 32.1 µM (inactive)
C=C1C2C[C@@H]3OC4CC5O[C@]6(CC5OC4C(C)C3OC(=O)CC3CC[C@@H]4OC5C7OC8C[C@](CCC9CC(=C)[C@H](CCC(C[C@H]1C)O2)O9)(OC7C4O3)O[C@@H]85)C[C@@H]1O[C@@]2(CC(C)[C@@H]3OC(CC(=O)CCO)C(O)C[C@@H]3O2)CC(C)[C@@H]1O6 (stereo partly drawn); < 0.001 µM (active)
CSC1=N/C(=C\c2ccccc2)C(=O)N1CN1CCOCC1; 41.1 µM (inactive)
COc1cc2oc(-c3ccc(O)cc3)cc(=O)c2c(OC)c1OC; > 100 µM (inactive)
COc1ccc(C(=C[N+](=O)[O-])c2ccc(OC)cc2)cc1; 13 µM (inactive)
Cc1ccccc1OC(C)C(=O)NN1C(=O)CC(=O)NC1=S (stereo not drawn); > 100 µM (inactive)
Cc1cccc2[nH]c3c(c(O)cc4[nH]c5cccc(C)c5c(=O)c43)c(=O)c12; 6.11 µM (inactive)
CCOC(=O)/C(O)=C(/C(=O)OC)c1ccc(Cl)cc1; > 100 µM (inactive)

Q) May I ask what GI50 has been recorded for Cc1cc(O)nc(NNC(C#N)c2c(O)ccc3ccccc23)n1 (stereo not drawn) ?
A) 3.1 µM (inactive)

Q) And S=C1CC(c2ccccc2)Sc2ccc(Cl)cc2N1 (stereo not drawn) ?
A) 43.4 µM (inactive)

Q) Next record, please: CCOC(=O)C1(Cc2ccc3c(c2)CCC3)Cc2cc3c(cc2C1=O)CCC3 (stereo not drawn)
A) > 91.2 µM (inactive)

Q) Now consider `O=c1oc2ccccc2c(-c2ccc(O)cc2)c1Oc1ccc(Cl)cc1` and answer again.
A) 25.8 µM (inactive)

Q) Then this molecule: `CCCCCCSCC/C(C)=N\OC`
A) > 100 µM (inactive)

---

Listed here: items and their measured GI50.
- Test system: MDA-N
- Protocol summary: NCI tumour cell line growth inhibition, 48 h
Active and inactive are the calls of the source. Cut-off read from the data, not from the text of the source: active = GI50 up to about 1.1 µM and inactive = higher.

Look over these answered cases.
CCOP(=O)(OCC)C(C)(C)OC(=O)NC(F)(F)F; > 100 µM (inactive)
O=C1c2cc([N+](=O)[O-])cnc2S(=O)(=O)N1c1ccc(Br)cc1; > 100 µM (inactive)
C/C(=N\NC(=[Se])N1CCN(c2ccccn2)CC1)c1ccccn1; 2.99 µM (inactive)
CCCNC(=O)c1cc(NC(=O)c2cc(NC(=O)/C=C/c3ccccc3)c(OC)c(OC)c2)c(OC)c(OC)c1; 13.8 µM (inactive)
CN1C(=O)N(c2ccccc2)C2(CCN(CC3COc4ccccc4O3)CC2)C1=O (configuration not stated); > 100 µM (inactive)
Cc1ccc2c(c1C)C(=O)C1(C2)Cc2ccc3c(c2C1=O)CCC3 (configuration not stated); > 100 µM (inactive)

Q) Query: GI50; subject: `CCOC(=O)/C(C#N)=C\c1ccc(N(CCC(=O)O)CCC(=O)O)c(I)c1`
A) > 10 µM (inactive)

---

Entries and their GI50
- Test system: SK-MEL-5
- Protocol summary: NCI tumour cell line growth inhibition, 48 h
Calls of active or inactive are those of the source. No stated cut-off is given here; in the data, active = GI50 up to about 1.1 µM and inactive = higher.

Solved cases (2 shown):
CCOC(=O)C1(Cc2ccc3c(c2)CCC3)Cc2cc3c(cc2C1=O)CCC3 (stereo not drawn); 20.1 µM (inactive)
CN(C)CCSc1cc(-c2ccccc2)c2ccccc2n1; 1.63 µM (inactive)

Q) Endpoint output: GI50 of `COc1cc2oc(-c3ccc(O)cc3)cc(=O)c2c(OC)c1OC` . Value?
A) > 100 µM (inactive)

---

- System: SNB-78
- Protocol summary: NCI tumour cell line growth inhibition, 48 h
Activity calls are given as the source filed them. No stated cut-off is given here; in the data, active = GI50 up to about 1.1 µM and inactive = higher.
Attribute measured: GI50

Example entries and their recorded answers appear below.
Clc1ccc2c(c1)C1C(CO2)C(c2ccccc2)=NN1c1ccccc1 (stereo not drawn); 29.9 µM (inactive)
COC(=O)CCCCCOS(=O)(=O)c1ccc(C)cc1; > 100 µM (inactive)

Q) # get_value(readout='GI50', item= Cc1cc(O)nc(NNC(C#N)c2c(O)ccc3ccccc23)n1 (stereo not drawn) )
A) 19.3 µM (inactive)

Q) Okay, and `O=C1C(CO)=C[C@H](O)[C@H]2O[C@@H]12` ?
A) 186 µM (inactive)

Q) Then what about the compound `COc1cccc(NC(=O)CSc2nnc(Cc3ccccc3)o2)c1` ?
A) > 100 µM (inactive)

Q) // next record `O=C(NC12CC3CC(CC(C3)C1)C2)C(=O)c1c[nH]c2ccccc12`
A) 18 µM (inactive)

Q) Same read-out for `COc1ccc(NC(=O)C2=CC(=O)c3ccc(O)cc3C2=O)c(OC)c1` ?
A) > 100 µM (inactive)

Q) Try this compound too: CCCCCCCCCCCCC(CC)CCCCC(=O)O (stereo not drawn)
A) > 100 µM (inactive)

---

Entries and their GI50 values follow.
- Tested on: 786-0
- Protocol summary: NCI tumour cell line growth inhibition, 48 h
Calls of active or inactive are those of the source. Cut-off read from the data, not from the text of the source: active = GI50 up to about 1.1 µM and inactive = higher.

Solved cases below.
COc1ccc(NC(=O)c2cc(NC(=O)/C=C/c3ccccc3)c(OC)c(OC)c2)cc1; 11.7 µM (inactive)
CN1C(=O)C(O)C[C@@H]1c1ccccc1 (stereo partly specified); > 100 µM (inactive)
O=C1NC(=S)NC1C(Cc1ccccc1)c1ccco1 (stereo unspecified); > 100 µM (inactive)

Q) Query: GI50; subject: `CN(C)CC/C=C1\c2ccccc2Sc2ccc(Cl)cc21`
A) 12.2 µM (inactive)

Q) Request: `SC1=NC2(CCCCCC2)NN1c1ccccc1`
A) > 30.6 µM (inactive)

Q) Now the compound Cc1cccc(N2C(=O)C3c4[nH]c5ccccc5c4C4CCC(C(C)(C)C)CC4C3C2=O)c1C (stereo unspecified)
A) 38.7 µM (inactive)

---

Assay system HCT-15; read-out recorded as log10 of GI50.
All values: log10 GI50 [µM].

NNC(=O)C1(NC(=O)c2ccccc2)C(c2ccccc2)C(c2ccccc2)=NN1c1ccccc1 (centres undefined); 1.27

Q) Return reported log10 of GI50; argument: `CSc1cc(=O)n2c3ccccc3c3ccnc1c32`
A) 1.60

Q) Would you mind doing `CCN1C(=O)C(=C/C=C/c2ccc([N+](=O)[O-])cc2)C(=O)N(CC)C1=S` as well?
A) 1.47

Q) What do you get for `O=C(O)c1nc2ccc(C(F)(F)F)cc2nc1Nc1ccc(Cl)c(Cl)c1` ?
A) 0.95

Q) Same question, `Cc1cc2cc3c(cc2c(-c2ccc([N+](=O)[O-])cc2)n1)OCO3` this time
A) 1.42

---

Catalogue of GI50 values
- System: SNB-19
- Protocol summary: NCI tumour cell line growth inhibition, 48 h
Calls of active or inactive are those of the source. Rule as the data show it: active = GI50 up to about 1.1 µM and inactive = higher. Where a SMILES comes first, the peptide text is derived from it. The star is where a group is joined. Fmoc = O=C(OCC1c2ccccc2-c2ccccc21)*; Boc = CC(C)(C)OC(=O)*

Worked examples, 6 molecules total:
O=C(CO)CC(=O)C(=O)Nc1ccccc1; > 100 µM (inactive)
CC(C(=O)O)c1cnn(-c2ccccc2)c1-n1cccc1 (centres undefined); > 100 µM (inactive)
CN1/C(=N\c2ccccc2)S/C1=N/c1ccccc1; > 100 µM (inactive)
OC(c1ccc(Br)cc1)(c1cccs1)C1CC1 (centres undefined); 41.1 µM (inactive)
CCCCCCCCCCCCCCCc1ccc(OCC(O)CO)cc1 (centres undefined); 40.1 µM (inactive)
NC(=O)c1c2c(n3ccccc13)C(=O)c1ccccc1C2=O; 74 µM (inactive)

Q) Form field - read-out: GI50; system: SNB-19; submitted item: C1=CC2SSSC2C1 (centres undefined)
A) > 100 µM (inactive)

Q) Continue with `Cc1n[nH]c(=O)n1/N=C/c1ccc([N+](=O)[O-])o1`
A) 31 µM (inactive)

Q) Record: CC(C)(C)OC(=O)NCCCCC(NC(=O)C(Cc1c[nH]c2ccccc12)NC(=O)OCC1c2ccccc2-c2ccccc21)C(=O)O (centres undefined) (Fmoc-Trp-Lys(Boc)-OH; configuration not given here)
A) 27.3 µM (inactive)

Q) Repeat with `CSc1cc(=O)n2c3ccccc3c3ccnc1c32`
A) > 64.3 µM (inactive)

Q) Okay, and CSc1nc2c(c(O)c(C)c(=O)n2C2OCC(OC(C)=O)C(OC(C)=O)C2OC(C)=O)c(=O)n1C (centres undefined) ?
A) > 100 µM (inactive)

Q) Try this molecule next: Nc1ncnc2c1nnn2C1CCC(CP(=O)(O)O)C1 (centres undefined)
A) > 100 µM (inactive)
